B1: C22orf15 (parent)
chain: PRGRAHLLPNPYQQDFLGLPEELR

Variants of: B1
Experiment: protein stability index of a GFP-peptide fusion (GPS, HEK-293T) (PSI 1-6); higher = more stable;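 note: lentivirally expressed fusions sorted by FACS into six bins by GFP to DsRed ratio, PSI derived from sequencing read proportions per bin multiplied by bin number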
Conditions: c terminus: a fixed tail appended
// map protein stability index onto a label; ranges lo (below 3), mid (3 to below 4), hi (4 or more)

>  <change>
G18E

>  <discreteLabel>
hi

$$$$
>  <change>
P11W

>  <discreteLabel>
lo

$$$$
>  <change>
P1C

>  <discreteLabel>
lo

$$$$
>  <change>
Y12M

>  <discreteLabel>
hi

$$$$
>  <change>
L8Y

>  <discreteLabel>
mid

$$$$
>  <change>
L8C

>  <discreteLabel>
hi

$$$$
>  <change>
P9C

>  <discreteLabel>
lo

$$$$
>  <change>
Q13Y

>  <discreteLabel>
mid

$$$$

The reported numbers originate from the supplement of paper PMC10567573.
